Measured On: Serine/threonine-protein kinase B-raf (Homo sapiens)
Measurement Notes: Activation of tumorigenic wild type B-Raf in human IPC-298 cells with Ras mutation assessed as phosphorylation of ERK
Sequence (P15056 2-766 limits assumed, change not shown): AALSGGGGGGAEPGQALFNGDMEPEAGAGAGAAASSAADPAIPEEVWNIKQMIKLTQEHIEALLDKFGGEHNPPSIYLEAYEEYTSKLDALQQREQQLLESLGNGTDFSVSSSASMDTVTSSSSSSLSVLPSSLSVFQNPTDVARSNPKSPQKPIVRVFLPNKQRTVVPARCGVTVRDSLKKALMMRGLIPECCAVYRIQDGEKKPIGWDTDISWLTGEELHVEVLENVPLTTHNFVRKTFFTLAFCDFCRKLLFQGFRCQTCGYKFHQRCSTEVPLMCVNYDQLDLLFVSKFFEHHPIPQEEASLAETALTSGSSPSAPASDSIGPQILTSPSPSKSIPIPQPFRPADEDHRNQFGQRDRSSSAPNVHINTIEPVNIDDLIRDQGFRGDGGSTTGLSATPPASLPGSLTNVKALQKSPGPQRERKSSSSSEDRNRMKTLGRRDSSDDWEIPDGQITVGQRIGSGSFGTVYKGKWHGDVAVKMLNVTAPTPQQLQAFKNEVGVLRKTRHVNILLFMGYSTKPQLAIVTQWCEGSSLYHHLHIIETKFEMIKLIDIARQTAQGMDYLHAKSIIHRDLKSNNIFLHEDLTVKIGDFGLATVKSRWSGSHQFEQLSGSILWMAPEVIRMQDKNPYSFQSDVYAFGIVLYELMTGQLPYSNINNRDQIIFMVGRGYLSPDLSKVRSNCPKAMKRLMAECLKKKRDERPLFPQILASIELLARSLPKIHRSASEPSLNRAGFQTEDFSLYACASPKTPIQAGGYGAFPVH
# key: entry, value: EC50

[[record]]
structure_smiles = "CCN(C)S(=O)(=O)Nc1ccc(F)c(C(=O)c2c[nH]c3ncc(Cl)cc23)c1F"
recorded_endpoint = "EC50"
observed = "> 10 µM"


Alright, here's another compound for you.
May I ask what EC50 has been recorded for `CCN(C)S(=O)(=O)Nc1ccc(F)c(C(=O)c2c[nH]c3ncc(-c4ccc(Cl)cc4)cc23)c1F` ?
> 10 µM

###

Measured On: Serine/threonine-protein kinase B-raf (Homo sapiens)
Measurement Notes: Binding affinity to recombinant human full-length wild type B-Raf (unknown origin) assessed as TPIQAGGYGAFPVH accessible protease cleavage peptide level by LC-MS/MS analysis relative to control; further: test concentration or dose not given here
Sequence (P15056 whole entry): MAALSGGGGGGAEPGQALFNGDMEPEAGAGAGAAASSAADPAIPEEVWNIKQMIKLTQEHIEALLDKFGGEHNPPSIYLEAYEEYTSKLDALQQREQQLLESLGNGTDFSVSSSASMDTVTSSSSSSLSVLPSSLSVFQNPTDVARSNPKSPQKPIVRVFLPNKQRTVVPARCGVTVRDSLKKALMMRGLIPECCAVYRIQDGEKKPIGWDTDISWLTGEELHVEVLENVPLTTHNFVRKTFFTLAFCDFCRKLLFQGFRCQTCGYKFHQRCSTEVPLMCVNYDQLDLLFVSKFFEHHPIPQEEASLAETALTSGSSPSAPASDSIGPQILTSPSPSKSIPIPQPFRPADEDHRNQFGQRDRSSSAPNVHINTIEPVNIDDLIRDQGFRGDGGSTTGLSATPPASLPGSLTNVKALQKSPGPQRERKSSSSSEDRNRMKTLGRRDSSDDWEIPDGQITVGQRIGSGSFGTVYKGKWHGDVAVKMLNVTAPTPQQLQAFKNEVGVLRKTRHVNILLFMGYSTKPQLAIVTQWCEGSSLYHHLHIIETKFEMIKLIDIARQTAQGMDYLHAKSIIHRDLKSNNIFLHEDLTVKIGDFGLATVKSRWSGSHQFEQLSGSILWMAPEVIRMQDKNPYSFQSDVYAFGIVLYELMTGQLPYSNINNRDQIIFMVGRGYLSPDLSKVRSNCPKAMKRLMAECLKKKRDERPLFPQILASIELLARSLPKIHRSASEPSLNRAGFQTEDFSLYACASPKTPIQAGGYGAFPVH
Recorded Endpoint: Ratio
Lab note: jot the number down without any unit.

[[record]]
structure_smiles = "Nc1ncnc2c1ncn2[C@@H]1O[C@H](COP(=O)(O)OP(=O)(O)NP(=O)(O)O)[C@@H](O)[C@H]1O"
recorded_endpoint = "Ratio"
observed = 1.14

[[record]]
structure_smiles = "CCN(C)S(=O)(=O)Nc1ccc(F)c(C(=O)c2c[nH]c3ncc(-c4ccc(Cl)cc4)cc23)c1F"
recorded_endpoint = "Ratio"
observed = 1.22

[[record]]
structure_smiles = "Nc1ncnc2c1ncn2[C@@H]1O[C@H](COP(=O)(O)OP(=O)(O)O)[C@@H](O)[C@H]1O"
recorded_endpoint = "Ratio"
observed = 1.42

[[record]]
structure_smiles = "Nc1ncnc2c1ncn2[C@@H]1O[C@H](COP(=O)(O)OP(=O)(O)OP(=O)(O)O)[C@@H](O)[C@H]1O"
recorded_endpoint = "Ratio"
observed = 0.95


Alright, here's another compound for you.
May I ask what Ratio has been recorded for `CCN(C)S(=O)(=O)Nc1ccc(F)c(C(=O)c2c[nH]c3ncc(Cl)cc23)c1F` ?
1.42

###

Measured On: Serine/threonine-protein kinase B-raf (Homo sapiens, UniProt P15056)
Measurement Notes: Binding affinity to recombinant human full-length wild type B-Raf (unknown origin) assessed as DQIIFMVGR accessible protease cleavage peptide level by LC-MS/MS analysis relative to control
Recorded Endpoint: Ratio
Lab note: jot the number down without any unit.

Solved cases below.
[[record]]
structure_smiles = "Nc1ncnc2c1ncn2[C@@H]1O[C@H](COP(=O)(O)OP(=O)(O)O)[C@@H](O)[C@H]1O"
measured_on = "Serine/threonine-protein kinase B-raf (Homo sapiens, UniProt P15056)"
observed = 1.36

[[record]]
structure_smiles = "CCN(C)S(=O)(=O)Nc1ccc(F)c(C(=O)c2c[nH]c3ncc(Cl)cc23)c1F"
measured_on = "Serine/threonine-protein kinase B-raf (Homo sapiens, UniProt P15056)"
observed = 0.83

[[record]]
structure_smiles = "CCN(C)S(=O)(=O)Nc1ccc(F)c(C(=O)c2c[nH]c3ncc(-c4ccc(Cl)cc4)cc23)c1F"
measured_on = "Serine/threonine-protein kinase B-raf (Homo sapiens, UniProt P15056)"
observed = 0.48

[[record]]
structure_smiles = "Nc1ncnc2c1ncn2[C@@H]1O[C@H](COP(=O)(O)OP(=O)(O)OP(=O)(O)O)[C@@H](O)[C@H]1O"
measured_on = "Serine/threonine-protein kinase B-raf (Homo sapiens, UniProt P15056)"
observed = 0.57


Alright, here's another molecule for you.
May I ask what Ratio has been recorded for `Nc1ncnc2c1ncn2[C@@H]1O[C@H](COP(=O)(O)OP(=O)(O)NP(=O)(O)O)[C@@H](O)[C@H]1O` ?
0.62
